Tested on: Staphylococcus aureus
Experiment: Antimicrobial activity against Staphylococcus aureus ATCC 25923 assessed as growth inhibition after 24 hr by NCCLS broth dilution method
Type: functional
Conditions: ATCC 25923, 24 h

>  <compound>
CN1CCN(c2cc3ncnc(Sc4nnc(-c5cccnc5)o4)c3cc2NC(=O)Nc2cccc(Cl)c2)CC1

>  <MIC (µg/mL)>
6.25

$$$$
>  <compound>
Cc1ccccc1NC(=O)Nc1ccc2ncnc(Sc3nnc(-c4cccnc4)o3)c2c1

>  <MIC (µg/mL)>
25

$$$$
>  <compound>
CN1CCN(c2cc3ncnc(Sc4nnc(-c5cccnc5)o4)c3cc2NC(=S)Nc2cccc(Cl)c2)CC1

>  <MIC (µg/mL)>
6.25

$$$$
>  <compound>
COc1ccccc1NC(=S)Nc1ccc2ncnc(Sc3nnc(-c4cccnc4)o3)c2c1

>  <MIC (µg/mL)>
12.5

$$$$
>  <compound>
O=C(Nc1ccccc1)Nc1ccc2ncnc(Sc3nnc(-c4cccnc4)o3)c2c1

>  <MIC (µg/mL)>
12.5

$$$$
>  <compound>
CN1CCN(c2cc3ncnc(Sc4nnc(-c5cccnc5)o4)c3cc2NC(=O)Nc2ccccc2)CC1

>  <MIC (µg/mL)>
25

$$$$
>  <compound>
Cc1ccc(NC(=S)Nc2cc3c(Sc4nnc(-c5cccnc5)o4)ncnc3cc2N2CCN(C)CC2)cc1

>  <MIC (µg/mL)>
12.5

$$$$
>  <compound>
O=C(NCCc1ccccc1)Nc1ccc2ncnc(Sc3nnc(-c4cccnc4)o3)c2c1

>  <MIC (µg/mL)>
12.5

$$$$
>  <compound>
CC1COc2c(N3CCN(C)CC3)c(F)cc3c(=O)c(C(=O)O)cn1c23 (configuration not stated)

>  <MIC (µg/mL)>
0.25

$$$$
>  <compound>
S=C(Nc1cccc(Cl)c1)Nc1ccc2ncnc(Sc3nnc(-c4cccnc4)o3)c2c1

>  <MIC (µg/mL)>
6.25

$$$$
>  <compound>
CC1(C)S[C@@H]2[C@H](NC(=O)Cc3ccccc3)C(=O)N2[C@H]1C(=O)O

>  <MIC (µg/mL)>
1.56

$$$$
>  <compound>
O=C(Nc1ccc2ncnc(Sc3nnc(-c4cccnc4)o3)c2c1)Nc1ccccc1Cl

>  <MIC (µg/mL)>
25

$$$$
>  <compound>
CN1CCN(c2cc3ncnc(Sc4nnc(-c5cccnc5)o4)c3cc2NC(=O)Nc2ccc(-c3ccccc3)cc2)CC1

>  <MIC (µg/mL)>
25

$$$$
>  <compound>
O=C(Nc1ccc(Cl)cc1)Nc1ccc2ncnc(Sc3nnc(-c4cccnc4)o3)c2c1

>  <MIC (µg/mL)>
6.25

$$$$
>  <compound>
Cc1cccc(NC(=S)Nc2ccc3ncnc(Sc4nnc(-c5cccnc5)o4)c3c2)c1

>  <MIC (µg/mL)>
75

$$$$
>  <compound>
O=C(Nc1ccc(-c2ccccc2)cc1)Nc1ccc2ncnc(Sc3nnc(-c4cccnc4)o3)c2c1

>  <MIC (µg/mL)>
12.5

$$$$
>  <compound>
COc1ccccc1NC(=S)Nc1cc2c(Sc3nnc(-c4cccnc4)o3)ncnc2cc1N1CCN(C)CC1

>  <MIC (µg/mL)>
12.5

$$$$
>  <compound>
Cc1ccc(NC(=O)Nc2cc3c(Sc4nnc(-c5cccnc5)o4)ncnc3cc2N2CCN(C)CC2)cc1

>  <MIC (µg/mL)>
25

$$$$
>  <compound>
Cc1ccc(NC(=O)Nc2ccc3ncnc(Sc4nnc(-c5cccnc5)o4)c3c2)cc1

>  <MIC (µg/mL)>
12.5

$$$$
>  <compound>
CN1CCN(c2cc3ncnc(Sc4nnc(-c5cccnc5)o4)c3cc2NC(=O)Nc2ccc(Cl)cc2)CC1

>  <MIC (µg/mL)>
25

$$$$
>  <compound>
Cc1cccc(NC(=O)Nc2cc3c(Sc4nnc(-c5cccnc5)o4)ncnc3cc2N2CCN(C)CC2)c1

>  <MIC (µg/mL)>
50

$$$$
>  <compound>
CN[C@@H]1[C@H](O[C@H]2[C@H](O[C@H]3[C@H](O)[C@@H](O)[C@H](N=C(N)N)[C@@H](O)[C@@H]3N=C(N)N)O[C@@H](C)[C@]2(O)C=O)O[C@@H](CO)[C@H](O)[C@H]1O

>  <MIC (µg/mL)>
6.25

$$$$
>  <compound>
Cc1ccccc1NC(=O)Nc1cc2c(Sc3nnc(-c4cccnc4)o3)ncnc2cc1N1CCN(C)CC1

>  <MIC (µg/mL)>
12.5

$$$$
>  <compound>
CN1CCN(c2cc3ncnc(Sc4nnc(-c5cccnc5)o4)c3cc2NC(=O)NC2CCCCC2)CC1

>  <MIC (µg/mL)>
50

$$$$
>  <compound>
Fc1ccc(NC(=S)Nc2ccc3ncnc(Sc4nnc(-c5cccnc5)o4)c3c2)cc1

>  <MIC (µg/mL)>
6.25

$$$$
>  <compound>
Cc1ccccc1NC(=S)Nc1ccc2ncnc(Sc3nnc(-c4cccnc4)o3)c2c1

>  <MIC (µg/mL)>
75

$$$$
>  <compound>
CN1CCN(c2cc3ncnc(Sc4nnc(-c5cccnc5)o4)c3cc2NC(=S)Nc2ccccc2Cl)CC1

>  <MIC (µg/mL)>
25

$$$$
>  <compound>
CC1(C)S[C@@H]2[C@H](NC(=O)[C@H](N)c3ccccc3)C(=O)N2[C@H]1C(=O)O.O.O.O [AMPICILLIN TRIHYDRATE]

>  <MIC (µg/mL)>
0.05

$$$$
>  <compound>
CN1CCN(c2cc3ncnc(Sc4nnc(-c5cccnc5)o4)c3cc2NC(=S)Nc2ccccc2)CC1

>  <MIC (µg/mL)>
50

$$$$
>  <compound>
S=C(Nc1ccccc1)Nc1ccc2ncnc(Sc3nnc(-c4cccnc4)o3)c2c1

>  <MIC (µg/mL)>
50

$$$$
>  <compound>
CN1CCN(c2cc3ncnc(Sc4nnc(-c5cccnc5)o4)c3cc2NC(=O)NCCc2ccccc2)CC1

>  <MIC (µg/mL)>
6.25

$$$$
>  <compound>
CN1CCN(c2cc3ncnc(Sc4nnc(-c5cccnc5)o4)c3cc2NC(=O)Nc2ccccc2Cl)CC1

>  <MIC (µg/mL)>
25

$$$$

All values here come from ChEMBL document CHEMBL3046216.
